# Protocol details: Stability of JAK3 Covalent Inhibitors in Human Whole Blood
# Format: in vitro ADME
# Particulars: both sexes, 1 μM test compound, 37° C., 180 min incubation, read-out: Human blood stability t1/2
Field: half-life at 1 μM. Provide a value for each of the compounds that follow.
Note: unit h is implicit; provide only the numeric part.

Data request: Report half-life at 1 μM for C=CC(=O)N1CCC(C)(Nc2cnc3[nH]cc(C(=O)NC4CCC4)c3n2)CC1 [Example 324] please.
Data returned: 4.3

Data request: Report half-life at 1 μM for C=CC(=O)N1CCC(N(C)c2cnc3[nH]cc(C(=O)NC(C)C)c3n2)CC1 [Example 64] please.
Data returned: 4.42

Data request: Report half-life at 1 μM for C=CC(=O)N1CC[C@@H](Nc2cnc3[nH]cc(C(=O)NCC)c3n2)[C@H](O)C1 (single isomer, unassigned) [Example 33] please.
Data returned: 3.47

Data request: Report half-life at 1 μM for C=CC(=O)N1CC[C@@H](Oc2cnc3[nH]cc(C(=O)NCC)c3n2)[C@H](C)C1 (single isomer, unassigned) [Example 47] please.
Data returned: 1.8

Data request: Report half-life at 1 μM for C=CC(=O)N1CC(CF)CC(Nc2ncnc3[nH]ccc23)C1 (mixture of isomers) [Example 102] please.
Data returned: 2.02

Data request: Report half-life at 1 μM for C=CC(=O)N1CCC(Oc2cnc3[nH]cc(C(=O)N[C@H]4CC[C@@H](F)C4)c3n2)CC1 [Example 225] please.
Data returned: 3.93

---

# Assayed target: JAK3 enzyme (Homo sapiens, UniProt P52333)
# Protocol details: JAK Caliper Enzyme Assay at 4 μM ATP
# Format: biochemical
Binary call on IC50 with cut-off 0.8 nM: strictly below means True, and equality or higher means False.

Data request: Does this compound meet the criterion IC50 < 0.8 nM? C=CC(=O)N1CCC(Nc2cnc3[nH]cc(C(=O)NCC)c3c2)CC1
Data returned: False

Data request: Does this compound meet the criterion IC50 < 0.8 nM? C=CC(=O)N1C[C@H](CN2CC[C@H](C#N)C2)C[C@H](Nc2ncnc3[nH]ccc23)C1
Data returned: True

Data request: Does this compound meet the criterion IC50 < 0.8 nM? C=CC(=O)N1CCN(c2cnc3[nH]cc(C(=O)N[C@H]4CCO[C@H]4C)c3n2)CC1(C)C
Data returned: True

Data request: Does this compound meet the criterion IC50 < 0.8 nM? C=CC(=O)N1C[C@H](CO)C[C@H](Nc2ncnc3[nH]ccc23)C1 (single isomer, unassigned)
Data returned: False

Data request: Does this compound meet the criterion IC50 < 0.8 nM? C=CC(=O)N1C[C@@H](Nc2cnc3[nH]cc(C(=O)N[C@@H](C)COC)c3n2)CC[C@H]1C (single isomer, unassigned) [Example 67]
Data returned: True

Data request: Does this compound meet the criterion IC50 < 0.8 nM? C=CC(=O)N1CCC(Oc2cnc3[nH]cc(C(=O)NCCCC#N)c3n2)CC1
Data returned: True

Data request: Does this compound meet the criterion IC50 < 0.8 nM? C=CC(=O)N1CCN(c2cnc3[nH]cc(C(=O)N[C@@H](C)C(=O)OC)c3n2)CC1(C)C
Data returned: False

Data request: Does this compound meet the criterion IC50 < 0.8 nM? C=CC(=O)N1C[C@H](Nc2cnc3[nH]cc(C(=O)NCCOC)c3n2)C[C@H]1COCC
Data returned: False

Data request: Does this compound meet the criterion IC50 < 0.8 nM? C=CC(=O)N1CC[C@H](Oc2cnc3[nH]cc(C(=O)NCC)c3n2)C[C@H]1C (single isomer, unassigned)
Data returned: False

Data request: Does this compound meet the criterion IC50 < 0.8 nM? C=CC(=O)N1C[C@@H](Oc2cnc3[nH]cc(C(=O)N[C@@H](C)COC)c3n2)CC[C@H]1C (racemic)
Data returned: False

Data request: Does this compound meet the criterion IC50 < 0.8 nM? C=CC(=O)N1CCC(Oc2cnc3[nH]cc(C(=O)NC45CC(C4)C5)c3n2)CC1
Data returned: True

Data request: Does this compound meet the criterion IC50 < 0.8 nM? C=CC(=O)N1C[C@H](C2CC2)[C@H](Nc2cnc3[nH]cc(C(=O)NCC)c3n2)C1
Data returned: False

Data request: Does this compound meet the criterion IC50 < 0.8 nM? C=CC(=O)N1CC[C@@H](Nc2cnc3[nH]cc(C(=O)N[C@@H](C)COC)c3n2)[C@@H](OC)C1 [Example 312]
Data returned: False

Data request: Does this compound meet the criterion IC50 < 0.8 nM? C=CC(=O)N1CCC(Oc2cnc3[nH]cc(C(=O)N[C@H](C(C)C)[C@@H](O)C(F)(F)F)c3n2)CC1
Data returned: False

---

Field: IC50. Provide a value for each of the compounds that follow.
# Assayed target: UniProt P52333
# Sequence (P52333 1-1124): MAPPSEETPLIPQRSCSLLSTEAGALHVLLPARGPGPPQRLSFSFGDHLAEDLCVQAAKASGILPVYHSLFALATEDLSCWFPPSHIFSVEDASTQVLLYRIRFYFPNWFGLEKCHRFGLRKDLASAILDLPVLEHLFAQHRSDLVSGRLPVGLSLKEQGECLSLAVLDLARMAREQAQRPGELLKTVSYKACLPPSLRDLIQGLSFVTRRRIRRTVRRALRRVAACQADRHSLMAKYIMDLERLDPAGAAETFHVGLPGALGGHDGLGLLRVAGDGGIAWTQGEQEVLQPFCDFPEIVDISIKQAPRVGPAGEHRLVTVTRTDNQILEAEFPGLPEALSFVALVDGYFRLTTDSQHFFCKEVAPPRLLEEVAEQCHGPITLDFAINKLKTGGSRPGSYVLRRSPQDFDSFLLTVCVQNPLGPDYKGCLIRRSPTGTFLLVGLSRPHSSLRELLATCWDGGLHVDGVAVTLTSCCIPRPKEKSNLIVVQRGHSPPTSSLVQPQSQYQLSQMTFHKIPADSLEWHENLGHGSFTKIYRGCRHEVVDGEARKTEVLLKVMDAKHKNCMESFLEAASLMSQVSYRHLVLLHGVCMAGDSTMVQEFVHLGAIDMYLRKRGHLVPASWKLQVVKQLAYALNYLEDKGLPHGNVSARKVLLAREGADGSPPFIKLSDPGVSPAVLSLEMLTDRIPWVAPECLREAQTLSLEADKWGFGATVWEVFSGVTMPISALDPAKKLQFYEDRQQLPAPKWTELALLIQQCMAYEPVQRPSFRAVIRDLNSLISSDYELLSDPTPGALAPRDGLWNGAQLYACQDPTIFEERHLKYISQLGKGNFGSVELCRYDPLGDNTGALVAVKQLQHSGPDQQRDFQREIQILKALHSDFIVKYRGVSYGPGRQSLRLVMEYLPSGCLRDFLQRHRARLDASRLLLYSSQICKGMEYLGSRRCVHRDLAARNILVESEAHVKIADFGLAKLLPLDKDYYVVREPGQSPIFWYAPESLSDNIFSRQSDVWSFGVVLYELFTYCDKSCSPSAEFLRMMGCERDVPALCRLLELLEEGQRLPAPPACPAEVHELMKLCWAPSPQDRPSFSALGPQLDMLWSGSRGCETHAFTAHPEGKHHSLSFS
# Protocol details: JAK Caliper Enzyme Assay at 1 mM ATP
# Assay type: biochemical
Note: unit nM is implicit; provide only the numeric part.

Data request: Report IC50 for C=CC(=O)N(C)C1CN(c2cnc3[nH]cc(C(=O)N[C@@H](C)COC)c3n2)C1 please.
Data returned: 467

Data request: Report IC50 for C=CC(=O)N1CC[C@H](Nc2cnc3[nH]cc(C(=O)NC[C@H](C)CC(F)(F)F)c3n2)[C@H](OC)C1 please.
Data returned: 62

Data request: Report IC50 for C=CC(=O)N1CCC(Nc2cnc3[nH]cc(C(=O)NCc4cc(C(C)C)no4)c3n2)CC1 please.
Data returned: 8

Data request: Report IC50 for C=CC(=O)N1CCN(c2cnc3[nH]cc(C(=O)N[C@@H]4C[C@H]4C(F)(F)F)c3n2)CC1 please.
Data returned: 499

---

# Assayed target: JAK3 enzyme (Homo sapiens, UniProt P52333)
# Protocol details: JAK Caliper Enzyme Assay at 1 mM ATP
# Format: biochemical
Field: log10 of IC50. Provide a value for each of the compounds that follow.
Recall that a logarithmic scale is used here: each number is log10 of IC50 in nM.

Data request: Identify the measured log10 of IC50 of C=CC(=O)N1CCC(Oc2cnc3[nH]cc(-c4ncnn4C(C)C)c3n2)CC1 for JAK3 enzyme (Homo sapiens, UniProt P52333).
Data returned: 3.04

Data request: Identify the measured log10 of IC50 of C=CC(=O)N1C[C@@H](Nc2cnc3[nH]cc(C(=O)NCC)c3n2)CC[C@H]1C (single isomer, unassigned) [Example 75] for JAK3 enzyme (Homo sapiens, UniProt P52333).
Data returned: 2.50

Data request: Identify the measured log10 of IC50 of C=CC(=O)N1CCC(Oc2cnc3[nH]cc(C(=O)N[C@@H]4CCC[C@@H]4F)c3n2)CC1 for JAK3 enzyme (Homo sapiens, UniProt P52333).
Data returned: 1.53

Data request: Identify the measured log10 of IC50 of C=CC(=O)N1CCC(Nc2cnc3[nH]cc(C(=O)N[C@@H]4C[C@H]4C(F)(F)F)c3n2)CC1C (mixture of isomers) for JAK3 enzyme (Homo sapiens, UniProt P52333).
Data returned: 3.26

Data request: Identify the measured log10 of IC50 of C=CC(=O)N1CCC(Nc2cnc3[nH]cc(C(=O)NCc4ccc(OC(F)F)cc4)c3n2)CC1 for JAK3 enzyme (Homo sapiens, UniProt P52333).
Data returned: 0.70

Data request: Identify the measured log10 of IC50 of C=CC(=O)N1CCC(Oc2cnc3[nH]cc(-c4ncn(C(C)C)n4)c3n2)CC1 for JAK3 enzyme (Homo sapiens, UniProt P52333).
Data returned: 3.04

Taken from patent US10703756B2.
